System: WI-38
Experiment: Cytotoxicity against human WI38 cells after 24 hrs by resazurin assay
Settings: WI-38, 24 h
reported_endpoint: IC50

// below: answered compounds
- compound_structure: "COC(=O)/C(C)=C1\\C(=O)[C@H](O)[C@]2(C)C3=C(C[C@@H]4[C@]5(OC(=O)C6=C5C[C@H]5[C@](O)(COC(=O)/C=C(\\C)COC(=O)CCC(=O)OC6)[C@H]6C[C@H]6[C@]45C)[C@H]31)[C@H]1C[C@H]12"
  test_system: "WI-38"
  IC50: "0.23 µM"
- compound_structure: "COC(=O)/C(C)=C1\\C(=O)[C@H](O)[C@]2(C)C3=C(C[C@@H]4[C@]5(OC(=O)C(C)=C5C[C@H]5[C@](O)(COC(=O)/C=C(\\C)CO)[C@H]6C[C@H]6[C@]45C)[C@H]31)[C@H]1C[C@H]12"
  test_system: "WI-38"
  IC50: "4.45 µM"
- compound_structure: "C/C=C(\\C)C(=O)OC[C@]1(O)[C@H]2CC3=C(CO)C(=O)O[C@@]34[C@@H]3C5=C(C[C@H]4[C@@]2(C)[C@@H]2C[C@@H]21)[C@H]1C[C@H]1[C@]5(C)[C@@H](O)C(=O)/C3=C(\\C)C(=O)OC"
  test_system: "WI-38"
  IC50: "0.77 µM"

The value of IC50 measured for the compound "COC(=O)CCC(=O)OCC1=C2C[C@H]3[C@](O)(COC(=O)/C=C(\C)CO)[C@H]4C[C@H]4[C@]3(C)[C@@H]3C[C@@]4(OO)C5=C(/C(=C(\C)C(=O)OC)C(=O)[C@H](O)[C@@]5(C)[C@@H]5C[C@@H]54)[C@]23OC1=O" turned out to be > 100 µM

Just so you know, measured IC50 for "COC(=O)/C(C)=C1\C(=O)[C@H](O)[C@]2(C)C3=C(C[C@@H]4[C@]5(OC(=O)C6=C5C[C@H]5[C@](O)(COC(=O)/C(C)=C/COC(=O)CCC(=O)OC6)[C@H]6C[C@H]6[C@]45C)[C@H]31)[C@H]1C[C@H]12" came out at 16.7 µM

Notebook: "COC(=O)CCC(=O)OC/C(C)=C/C(=O)OC[C@]1(O)[C@H]2C[C@H]2[C@]2(C)[C@@H]3C[C@@]4(OO)C5=C(/C(=C(\C)C(=O)OC)C(=O)[C@H](O)[C@@]5(C)[C@@H]5C[C@@H]54)[C@@]34OC(=O)C(CO)=C4C[C@@H]12" , IC50 read as 0.53 µM

So, "COC(=O)/C(C)=C1\C(=O)[C@H](O)[C@]2(C)C3=C(C[C@@H]4[C@]5(OC(=O)C(CO)=C5C[C@H]5[C@](O)(COC(C)=O)[C@H]6C[C@H]6[C@]45C)[C@H]31)[C@H]1C[C@H]12" ? Its IC50 was 10 µM

The reported IC50 of the compound "COC(=O)CCC(=O)OCC1=C2C[C@H]3[C@](O)(COC(=O)/C=C(\C)C=O)[C@H]4C[C@H]4[C@]3(C)[C@@H]3CC4=C5[C@H](/C(=C(\C)C(=O)OC)C(=O)[C@H](O)[C@@]5(C)[C@@H]5C[C@H]45)[C@]23OC1=O" was 8.84 µM
